# System: SK-MEL-2 melanoma
# methodNotes: NCI tumour cell line growth inhibition, 48 h; in the data active = GI50 below about 0.43 µM; inactive = the rest
Response enum: TRUE for active, FALSE for inactive

[in] What did this assay record as the result for `COc1ccc(-c2c(-c3cc(OC)c4c(c3)OCO4)noc2N)cc1` ?
[out] TRUE

[in] Look up the recorded call for `CC(=O)OCC1O[C@@H]([S-])C(OC(C)=O)[C@H](OC(C)=O)[C@@H]1OC(C)=O.[Au+].c1ccc(CN2[CH-]N(Cc3ccccc3)C(c3ccccc3)=C2c2ccccc2)cc1` in this test.
[out] FALSE

[in] Which outcome did this test record for the molecule `CCC(C(=O)[O-])C(=O)[O-].CCC(C(=O)[O-])C(=O)[O-].N.N.NCCCCCCN.[Pt+4].[Pt+4]` ?
[out] FALSE

[in] Answer briefly: the call reported for `C#CCOc1cccc(Nc2ncnc3ccc(NC(=O)CCl)cc23)c1` in this assay.
[out] FALSE

[in] In this assay, the call recorded for CC1=C[S+](c2ccccc2)c2cccc3cc4ccccc4c1c23 (stereo not given) was what?
[out] FALSE

====

# Test system: HCC-2998 colon
# methodNotes: NCI tumour cell line growth inhibition, 48 h
Consider the following compounds; for each one, report its TGI.

[in] Form field: reported TGI of `COc1ccc(-c2csc(-c3cc(Cl)cc(Cl)c3Cl)n2)cc1`
[out] > 100 µM

[in] Item `COc1ccc(-c2cc(=O)c3c(O)cc(C)cc3o2)cc1OC` has what recorded TGI?
[out] > 100 µM

[in] Quick one: TGI for COc1ccc2c(c1)CCC1=CC3(CCC12C)SCCS3 (centres undefined) ?
[out] > 10 µM

[in] Item under review: `NC(=O)/C=C/NC(=O)/C=N\O` . Reported TGI?
[out] > 100 µM

====

# System: HT29 colon
# methodNotes: NCI tumour cell line growth inhibition, 48 h
Give TGI for every item shown.

[in] What does the data say about its TGI? Entry: `COc1ccccc1S(=O)(=O)Nc1ccc2c(c1)CN(C)C(=O)N2`
[out] > 100 µM

[in] Quick one: TGI for `COC(=O)[C@@H]1C[C@H]([Se]c2ccccc2)CN1C(=O)OCc1ccccc1` ?
[out] 70.4 µM

[in] What value of measured TGI is listed for `O=C(O)CCCOc1cc(-c2ccccc2F)nc2cc3c(cc12)OCO3` ?
[out] > 100 µM

[in] Report TGI for `O=C(c1ccccc1)c1nc2ccc(C(F)(F)F)cc2[n+]([O-])c1C(F)(F)F` please.
[out] > 100 µM

[in] Please give the measured TGI for this compound: `c1ccc(C[n+]2cccc(-c3cc4ccccc4[nH]3)c2)cc1`
[out] > 100 µM

[in] Given `Cc1ccc(S(=O)(=O)Cc2nc(-c3ccc(C(=O)NCc4cccnc4)cc3)oc2C)cc1` , state its recorded TGI.
[out] > 100 µM

[in] Which value of TGI has been reported for CCCCCCCCCCCCOC1C(CNC(=O)C2OC3OC(C)(C)OC3C2NC(=O)CN2CCCCCC2)OC2OC(C)(C)OC21 (stereo not given) in the records?
[out] 3.74 µM

[in] Which TGI value belongs to `CCCCCCCCCCCCN(O)C(=O)c1ccccc1` ?
[out] > 100 µM

[in] Which TGI value is on record for `COC(=O)c1ccccc1/C=C1\Cc2cc(C)c(C)cc2C1=O` ?
[out] > 100 µM

[in] If you can, please state the reported TGI value of `O=C(Oc1ccccc1Cl)c1ccccc1Nc1ccnc(C(F)(F)F)c1` .
[out] > 100 µM

[in] Name the recorded TGI for Cc1ccc(S(=O)(=O)N2CCCC2C(=O)O[C@H]2CC[C@H]3CC=C[C@H]32)cc1 (stereo not given in full) .
[out] > 100 µM

[in] Item `O=C(c1ccccc1)c1sc2c(=O)c(C(=O)c3ccccc3)c(C(=O)c3ccccc3)sc2c(=O)c1C(=O)c1ccccc1` has what recorded TGI?
[out] > 100 µM

[in] Quick one: TGI for `O=c1cc(-c2ccc(Cl)cc2)oc2cc(OCCCOc3ccc4c(=O)cc(-c5ccc(Cl)cc5)oc4c3)ccc12` ?
[out] > 100 µM

[in] Record request: TGI value, item C=CC(C)CCC(C/C=C(\C)CCC=C(C)C)C(=C)CCCC(C)C (stereo not given)
[out] > 100 µM

[in] # get_value(readout='TGI', item= NC(=O)c1[nH]cnc1/N=N/SCC(N)C(=O)O (stereo not given) )
[out] > 100 µM

[in] What measured TGI goes with O=C1c2c(O)cc(O)cc2OC(c2ccc(O)cc2O)C1O (stereo not given) ?
[out] > 100 µM

[in] Return reported TGI; argument: `C=C1C(=O)O[C@H]2[C@H]1CC(=O)/C(C)=C/CC[C@@]1(C)O[C@@H]21`
[out] 4.53 µM

[in] Field request: TGI | item: CC(=O)Nc1ccc(C(=O)NN2C(=O)C(Cl)C2c2ccccc2O)cc1 (stereo not given)
[out] > 100 µM

[in] Data request, read-out TGI, for COc1ccc(C2SC(C)C(=O)N2c2nc(-c3nc(-c4ccc(Cl)cc4)cs3)cs2)cc1 (stereo not given)
[out] > 100 µM

[in] // query TGI value for entry O=C=NCCCCCCN1C(=O)N2C(c3ccccc3)N(CCCCCCN=C=O)C(=O)N2C1c1ccccc1 (stereo not given)
[out] > 100 µM

[in] Please report the recorded TGI for C=C(C)[C@@H]1CC[C@]2(COC3CCCCO3)CC[C@]3(C)[C@H](CC[C@@H]4[C@@]5(C)C=C(C=O)C(=O)C(C)(C)[C@@H]5CC[C@]43C)[C@@H]12 (stereo not given in full) .
[out] 3.49 µM

[in] Dear colleague, I am looking for the recorded TGI of the following compound: `CN(C[C@@H]1COCCO1)S(=O)(=O)Nc1ccc2ccc3ncc(-c4cnn(C)c4)cc3c(=O)c2c1`
[out] > 100 µM

[in] Any idea what its TGI is? The compound is COc1cccc(CC2Cc3ccccc3CC(=O)N2)c1 (stereo not given)
[out] > 100 µM

[in] Could you tell me which TGI is on file for COC12CC(=O)C(C(C)=O)=C(O)C1(C)c1c(OC(C)=O)c(C)c(O)c(C(C)=O)c1O2 (stereo not given) ?
[out] 78.7 µM

[in] Form field: reported TGI of `NNc1[nH]c(=S)[nH]c1C(N)=O`
[out] > 100 µM

[in] Would you kindly share the measured TGI for `COc1ccc(Cc2nccc3cc(OC)c(OC)cc23)cc1OC` ?
[out] > 100 µM

[in] Quick one: TGI of `Cc1nc(N)sc1C(=O)Nc1cc(C(=O)NCCCN(C)C)n(C)c1` ?
[out] > 100 µM

[in] Given the entry `O=C([O-])c1ccc(C(=O)[O-])cc1.O=C([O-])c1ccc(C(=O)[O-])cc1.[Mo+2].[Mo+2]` , report its measured TGI.
[out] > 100 µM

[in] Consider the compound `O=C(OCc1ccc2c(Cl)cc(Cl)c(O)c2n1)c1cc2ccccc2[nH]1` and give its measured TGI.
[out] 1.03 µM

[in] Any idea what its TGI is? The compound is `C#CCOc1cccc(Nc2ncnc3ccc(NC(=O)CCl)cc23)c1`
[out] 6.87 µM

The values you see were collected from PubChem BioAssay (NCI).
